assay.system: T1, nfP2X7 CAR 1
T1 construct: CAR-positive cells gated by the co-expressed EGFR marker; also called nfP2X7 targeted CAR; nfP2X7 CAR on EGFR+ T cells
method.description: flow cytometry, nfP2X7 CAR 1 T cells (EGFR+ gate), anti-His-FITC detection
Protocol: nfP2X₇ CAR T cells were incubated with different BRiDGE variants at saturating concentrations. […] The MFI intensity correlates with the number of secondary bound antibodies bound to the BRiDGEs that are only detected if they are bound to the CAR T cells. EGFR was used as a marker gene to detect the CAR expression. Thus, the EGFR+ T cell population was defined as the CAR expressing cells and the EGFR− T cell population was defined as the CAR negative subset. MFI: median fluorescence intensity. […]
# MFI HisTag FITC in EGFR+ Population per entry
Keep it simple and answer with nothing but the number.

CD19 BRIDGE variant B8 (Fab, V domains shown) VH: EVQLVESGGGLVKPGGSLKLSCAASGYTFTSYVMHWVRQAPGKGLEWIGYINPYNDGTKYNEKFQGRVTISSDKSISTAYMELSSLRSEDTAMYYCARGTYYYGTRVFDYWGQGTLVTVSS VL: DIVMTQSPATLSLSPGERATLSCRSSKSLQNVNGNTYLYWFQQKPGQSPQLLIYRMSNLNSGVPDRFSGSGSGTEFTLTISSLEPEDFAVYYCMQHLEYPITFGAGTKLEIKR :: 2.53
CD19 BRIDGE variant B26 (Fab, V domains shown) VH: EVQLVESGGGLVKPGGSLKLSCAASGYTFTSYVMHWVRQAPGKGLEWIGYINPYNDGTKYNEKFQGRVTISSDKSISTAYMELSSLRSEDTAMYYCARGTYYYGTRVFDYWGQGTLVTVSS VL: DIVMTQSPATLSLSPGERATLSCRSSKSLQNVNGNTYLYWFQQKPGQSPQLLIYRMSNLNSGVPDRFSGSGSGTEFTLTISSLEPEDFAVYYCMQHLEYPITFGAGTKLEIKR :: 2.17

With those in mind, consider the next binder.
For the binder shown here, CD19 BRIDGE variant B9 (Fab, V domains shown) VH: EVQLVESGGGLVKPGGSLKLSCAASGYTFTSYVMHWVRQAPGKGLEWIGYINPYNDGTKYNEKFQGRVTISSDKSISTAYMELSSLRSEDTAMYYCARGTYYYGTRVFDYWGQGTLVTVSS VL: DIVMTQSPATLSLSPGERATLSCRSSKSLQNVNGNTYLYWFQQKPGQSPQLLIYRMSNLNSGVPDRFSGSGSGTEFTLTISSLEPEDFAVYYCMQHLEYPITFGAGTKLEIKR , give the reported MFI HisTag FITC in EGFR+ Population.
2.32
